B1: INTS3 (parent)
chain: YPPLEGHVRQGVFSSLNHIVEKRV

Variants of: B1
PROTOCOL NOTES: protein stability index of a GFP-peptide fusion (GPS, HEK-293T) (PSI 1-6); higher = more stable;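 further: lentivirally expressed fusions sorted by FACS into six bins by GFP to DsRed ratio, PSI derived from sequencing read proportions per bin multiplied by bin number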
APPLIED CONDITIONS: c terminus: a fixed tail appended
Is protein stability index at least 3? Then Fulfilled. If not, Not fulfilled.

QUERY: State whether the measured protein stability index reaches 3, counting equality as reaching it, for "G11C"
RESULT: Not fulfilled

QUERY: State whether the measured protein stability index reaches 3, counting equality as reaching it, for "Y1M"
RESULT: Fulfilled

QUERY: State whether the measured protein stability index reaches 3, counting equality as reaching it, for "P2M"
RESULT: Not fulfilled

QUERY: State whether the measured protein stability index reaches 3, counting equality as reaching it, for "G11P"
RESULT: Fulfilled

QUERY: State whether the measured protein stability index reaches 3, counting equality as reaching it, for "L16F"
RESULT: Not fulfilled

QUERY: State whether the measured protein stability index reaches 3, counting equality as reaching it, for "V24L"
RESULT: Not fulfilled

QUERY: State whether the measured protein stability index reaches 3, counting equality as reaching it, for "L4Q"
RESULT: Not fulfilled

QUERY: State whether the measured protein stability index reaches 3, counting equality as reaching it, for "S15Q"
RESULT: Not fulfilled

QUERY: State whether the measured protein stability index reaches 3, counting equality as reaching it, for "P3N"
RESULT: Not fulfilled

QUERY: State whether the measured protein stability index reaches 3, counting equality as reaching it, for "E5L"
RESULT: Not fulfilled

QUERY: State whether the measured protein stability index reaches 3, counting equality as reaching it, for "K22N"
RESULT: Not fulfilled

QUERY: State whether the measured protein stability index reaches 3, counting equality as reaching it, for "G11L"
RESULT: Not fulfilled

QUERY: State whether the measured protein stability index reaches 3, counting equality as reaching it, for "L4I"
RESULT: Not fulfilled

QUERY: State whether the measured protein stability index reaches 3, counting equality as reaching it, for "H18T"
RESULT: Not fulfilled

QUERY: State whether the measured protein stability index reaches 3, counting equality as reaching it, for "H18A"
RESULT: Not fulfilled

QUERY: State whether the measured protein stability index reaches 3, counting equality as reaching it, for "Y1R"
RESULT: Fulfilled

QUERY: State whether the measured protein stability index reaches 3, counting equality as reaching it, for "V24T"
RESULT: Not fulfilled

QUERY: State whether the measured protein stability index reaches 3, counting equality as reaching it, for "E5H"
RESULT: Not fulfilled

QUERY: State whether the measured protein stability index reaches 3, counting equality as reaching it, for "V24D"
RESULT: Fulfilled

QUERY: State whether the measured protein stability index reaches 3, counting equality as reaching it, for "V24N"
RESULT: Not fulfilled

QUERY: State whether the measured protein stability index reaches 3, counting equality as reaching it, for "N17Q"
RESULT: Not fulfilled

QUERY: State whether the measured protein stability index reaches 3, counting equality as reaching it, for "V12Q"
RESULT: Fulfilled

QUERY: State whether the measured protein stability index reaches 3, counting equality as reaching it, for "R23M"
RESULT: Not fulfilled

QUERY: State whether the measured protein stability index reaches 3, counting equality as reaching it, for "G6W"
RESULT: Not fulfilled

QUERY: State whether the measured protein stability index reaches 3, counting equality as reaching it, for "V8L"
RESULT: Not fulfilled

QUERY: State whether the measured protein stability index reaches 3, counting equality as reaching it, for "I19S"
RESULT: Not fulfilled

QUERY: State whether the measured protein stability index reaches 3, counting equality as reaching it, for "F13D"
RESULT: Fulfilled

QUERY: State whether the measured protein stability index reaches 3, counting equality as reaching it, for "R9W"
RESULT: Not fulfilled

QUERY: State whether the measured protein stability index reaches 3, counting equality as reaching it, for "V8E"
RESULT: Fulfilled

QUERY: State whether the measured protein stability index reaches 3, counting equality as reaching it, for "G11S"
RESULT: Not fulfilled

QUERY: State whether the measured protein stability index reaches 3, counting equality as reaching it, for "L16N"
RESULT: Fulfilled

QUERY: State whether the measured protein stability index reaches 3, counting equality as reaching it, for "R23F"
RESULT: Not fulfilled

QUERY: State whether the measured protein stability index reaches 3, counting equality as reaching it, for "Y1A"
RESULT: Fulfilled

QUERY: State whether the measured protein stability index reaches 3, counting equality as reaching it, for "R23E"
RESULT: Not fulfilled

QUERY: State whether the measured protein stability index reaches 3, counting equality as reaching it, for "G6L"
RESULT: Not fulfilled

QUERY: State whether the measured protein stability index reaches 3, counting equality as reaching it, for "R23H"
RESULT: Not fulfilled

QUERY: State whether the measured protein stability index reaches 3, counting equality as reaching it, for "F13Q"
RESULT: Fulfilled

QUERY: State whether the measured protein stability index reaches 3, counting equality as reaching it, for "E21Q"
RESULT: Not fulfilled

QUERY: State whether the measured protein stability index reaches 3, counting equality as reaching it, for "V24Q"
RESULT: Not fulfilled

QUERY: State whether the measured protein stability index reaches 3, counting equality as reaching it, for "R23I"
RESULT: Not fulfilled

QUERY: State whether the measured protein stability index reaches 3, counting equality as reaching it, for "E5V"
RESULT: Not fulfilled

QUERY: State whether the measured protein stability index reaches 3, counting equality as reaching it, for "G6Y"
RESULT: Not fulfilled
